Method summary: oral vs intravenous two-way crossover clinical trial, pharmacokinetics / bioavailability
Assay type: in vivo
Condition context: human, blood; healthy adults, oral administration (40 mg)
Readout label: AUC(0-inf) (ng·h/mL)
Express your answer in ng·h/mL, writing the number without its unit.

Exam item: Which AUC(0-inf) value belongs to CNCc1cn(S(=O)(=O)c2cccc(F)c2)c(-c2ccc(F)cc2F)c1OC [Fexuprazan] ?
Marked response: 556

====

Method summary: oral vs intravenous two-way crossover clinical trial, pharmacokinetics / bioavailability
Assay type: in vivo
Condition context: human, blood; healthy adults, intravenous administration (40 mg)
Readout label: AUC(0-inf)

Exam item: Which AUC(0-inf) value belongs to CNCc1cn(S(=O)(=O)c2cccc(F)c2)c(-c2ccc(F)cc2F)c1OC [Fexuprazan] ?
Marked response: 1150 ng·h/mL

====

Method summary: single intravenous dose-escalation clinical trial, pharmacokinetics
Type: in vivo
Condition context: human, blood; healthy adults, single intravenous 80 mg
Readout label: half-life (h)
Express your answer in h, writing the number without its unit.

Exam item: Which half-life value belongs to `CNCc1cn(S(=O)(=O)c2cccc(F)c2)c(-c2ccc(F)cc2F)c1OC` ?
Marked response: 10.2

====

Method summary: single intravenous dose-escalation clinical trial, pharmacokinetics
Format: in vivo
Condition context: human, blood; healthy adults, single intravenous 40 mg
Readout label: AUC(0-inf) (ng·h/mL)
Express your answer in ng·h/mL, writing the number without its unit.

Exam item: Which AUC(0-inf) value belongs to CNCc1cn(S(=O)(=O)c2cccc(F)c2)c(-c2ccc(F)cc2F)c1OC [Fexuprazan] ?
Marked response: 1100

====

Method summary: pharmacokinetic experiment in male rats (oral and tail vein)
Type: in vivo, rat
Condition context: rat, plasma, IV 1 mg/kg
Readout label: clearance
Please append the unit to your numeric answer.

Exam item: Which clearance value belongs to `CNCc1cn(S(=O)(=O)c2cccc(F)c2)c(-c2ccc(F)cc2F)c1OC` ?
Marked response: 114 mL/min/kg

====

Method summary: oral vs intravenous two-way crossover clinical trial, pharmacokinetics / bioavailability
Assay type: in vivo
Condition context: human, blood; healthy adults, intravenous administration (40 mg)
Readout label: half-life (h)
Express your answer in h, writing the number without its unit.

Exam item: Which half-life value belongs to `CNCc1cn(S(=O)(=O)c2cccc(F)c2)c(-c2ccc(F)cc2F)c1OC` ?
Marked response: 9.53

====

Method summary: single intravenous dose-escalation clinical trial, pharmacokinetics
Format: in vivo
Condition context: human, blood; healthy adults, single intravenous 10 mg
Readout label: AUC(0-t) (ng·h/mL)
Express your answer in ng·h/mL, writing the number without its unit.

Exam item: Which AUC(0-t) value belongs to `CNCc1cn(S(=O)(=O)c2cccc(F)c2)c(-c2ccc(F)cc2F)c1OC` ?
Marked response: 235

====

Method summary: single intravenous dose-escalation clinical trial, pharmacokinetics
Type: in vivo
Condition context: human, blood; healthy adults, single intravenous 20 mg
Source text: In order to confirm the safety/PK/PD of the compound of the present invention during intravenous administration, the clinical trial was designed with random assignment, double-blind, placebo-controlled, single dose, and stepwise dose-escalation in healthy adults (Korean/Chinese) between the ages of 19 and 50. […]
Readout label: AUC(0-t) (ng·h/mL)
Express your answer in ng·h/mL, writing the number without its unit.

Exam item: Which AUC(0-t) value belongs to `CNCc1cn(S(=O)(=O)c2cccc(F)c2)c(-c2ccc(F)cc2F)c1OC` ?
Marked response: 502
